- Procedure Details: In vivo testing of electrostatically spun tube containing two sets of microparticles, plasma concentrations
- Set-up: species or system Sprague-Dawley rats
- Assay Conditions: male, Sprague-Dawley, rat, plasma, subcutaneous, 3 hour, subcutaneous electrospun tube implant, TMC278 139 mg/kg, compound 1 64 mg/kg, individual animals 1-4
Entries annotated with measured concentration at 3 h

- Compound: "CC(C)CN(C[C@@H](O)[C@H](Cc1ccccc1)NC(=O)O[C@H]1CO[C@H]2OCC[C@H]21)S(=O)(=O)c1ccc2c(c1)OCO2 [compound 1]"
  concentration at 3 h: "3.93 ng/mL"
- Compound: "Cc1cc(/C=C/C#N)cc(C)c1Nc1ccnc(Nc2ccc(C#N)cc2)n1 [TMC278, rilpivirine]"
  concentration at 3 h: "0.505 ng/mL"

----------
- Procedure Details: In vivo testing of electrostatically spun tube containing two sets of microparticles, plasma concentrations
- Set-up: species or system Sprague-Dawley rats
- Assay Conditions: male, Sprague-Dawley, rat, plasma, subcutaneous, 28 day, subcutaneous electrospun tube implant, TMC278 139 mg/kg, compound 1 64 mg/kg, individual animals 1-4

- Smiles Record: "Cc1cc(/C=C/C#N)cc(C)c1Nc1ccnc(Nc2ccc(C#N)cc2)n1"
  concentration at 28 day: "< 0.4 ng/mL"

----------
Measured concentration at 3 day, listed per entry for reference.
- Procedure Details: In vivo testing of electrostatically spun tube containing two sets of microparticles, plasma concentrations
- Set-up: species or system Sprague-Dawley rats
- Assay Conditions: male, Sprague-Dawley, rat, plasma, subcutaneous, 3 day, subcutaneous electrospun tube implant, TMC278 139 mg/kg, compound 1 64 mg/kg, individual animals 1-4

- Compound: "Cc1cc(/C=C/C#N)cc(C)c1Nc1ccnc(Nc2ccc(C#N)cc2)n1 [TMC278, rilpivirine]"
  Value Modifier: "<"
  concentration at 3 day (ng/mL): 0.4
- Compound: "CC(C)CN(C[C@@H](O)[C@H](Cc1ccccc1)NC(=O)O[C@H]1CO[C@H]2OCC[C@H]21)S(=O)(=O)c1ccc2c(c1)OCO2 [compound 1]"
  Value Modifier: "="
  concentration at 3 day (ng/mL): 10

----------
- Procedure Details: In vivo testing of laser drilled melt extruded tube containing two sets of microparticles, plasma concentrations
- Assay Conditions: male, Sprague-Dawley, rat, plasma, subcutaneous, 14 day, subcutaneous laser drilled extruded tube implant, TMC278 139 mg/kg, compound 1 64 mg/kg, individual animals 1-4
Quantity Measured: concentration at 14 day

- Smiles Record: "Cc1cc(/C=C/C#N)cc(C)c1Nc1ccnc(Nc2ccc(C#N)cc2)n1"
  Value Measured: "< 0.4 ng/mL"

----------
- Procedure Details: In vivo testing of electrostatically spun tube containing two sets of microparticles, plasma concentrations
- Set-up: species or system Sprague-Dawley rats
- Assay Conditions: male, Sprague-Dawley, rat, plasma, subcutaneous, 1 day, subcutaneous electrospun tube implant, TMC278 139 mg/kg, compound 1 64 mg/kg, individual animals 1-4

- Compound: "CC(C)CN(C[C@@H](O)[C@H](Cc1ccccc1)NC(=O)O[C@H]1CO[C@H]2OCC[C@H]21)S(=O)(=O)c1ccc2c(c1)OCO2 [compound 1]"
  Value Modifier: "="
  concentration at 1 day, ng/mL: 6.39
- Compound: "Cc1cc(/C=C/C#N)cc(C)c1Nc1ccnc(Nc2ccc(C#N)cc2)n1 [TMC278, rilpivirine]"
  Value Modifier: "<"
  concentration at 1 day, ng/mL: 0.4
